The origin of these recorded values is patent US7632851B2.

- protocolNotes: Fluorescence of the compound (precondition of the staining test)
- Format: physicochemical
assayReadout: Fluorescence

Worked set:
O=C(NCCF)c1cncc(-c2ccc3nonc3c2)c1 ... not fluorescent
FCCOc1ccc(-c2ccc3nonc3c2)cc1 ... not fluorescent
CNc1ccc(-c2ccc3nonc3c2)cc1[N+](=O)[O-] ... not fluorescent
CNc1cccc(-c2ccc3nonc3c2)c1 ... not fluorescent

Please look at the following compound next.
[in] Look up Fluorescence: O=C(NCCF)c1cnccc1-c1ccc2nonc2c1
[out] not fluorescent
